Overview of reported minimal effective dose across a group of compounds:
test system: MES-induced seizures; test: Maximal electroshock seizure (MES) test; type: in vivo, mice; conditions: Mus musculus, ip, mice, 4 h after injection; dosages 30, 100, 300 mg/kg; read-out: MES screening, minimum dose whereby bioactivity was demonstrated in half or more of the mice

The cases that follow already have their minimal effective dose on record.
CCCCCCOc1ccc(-c2ccnc3ncnn23)cc1 :: 100 mg/kg
Clc1ccccc1-c1ccnc2ncnn12 :: > 300 mg/kg
c1ccc(-c2ccnc3ncnn23)cc1 :: > 300 mg/kg

Data request: Given the compound `Clc1ccc(-c2ccnc3ccnn23)cc1` , what is its reported minimal effective dose?
Data returned: > 300 mg/kg

Data request: Given the compound `c1ccc(COc2ccc(-c3ccnc4ncnn34)cc2)cc1` , what is its reported minimal effective dose?
Data returned: 300 mg/kg

Data request: Given the compound `CCCCOc1ccc(-c2ccnc3ncnn23)cc1` , what is its reported minimal effective dose?
Data returned: > 300 mg/kg

Data request: Given the compound `CCCOc1ccc(-c2ccnc3ncnn23)cc1` , what is its reported minimal effective dose?
Data returned: > 300 mg/kg

Data request: Given the compound c1ccc(-c2ccnc3ccnn23)cc1 [Compound 4a, 7-Phenylpyrazolo[1,5-a]pyrimidine] , what is its reported minimal effective dose?
Data returned: > 300 mg/kg

Data request: Given the compound `Brc1ccc(-c2ccnc3ncnn23)cc1` , what is its reported minimal effective dose?
Data returned: > 300 mg/kg

Data request: Given the compound `Clc1ccc(-c2ccnc3ccnn23)c(Cl)c1` , what is its reported minimal effective dose?
Data returned: > 300 mg/kg
